B1: PhoQ; a variant is named by its letters at X, in order, P23837 (parent)
chain: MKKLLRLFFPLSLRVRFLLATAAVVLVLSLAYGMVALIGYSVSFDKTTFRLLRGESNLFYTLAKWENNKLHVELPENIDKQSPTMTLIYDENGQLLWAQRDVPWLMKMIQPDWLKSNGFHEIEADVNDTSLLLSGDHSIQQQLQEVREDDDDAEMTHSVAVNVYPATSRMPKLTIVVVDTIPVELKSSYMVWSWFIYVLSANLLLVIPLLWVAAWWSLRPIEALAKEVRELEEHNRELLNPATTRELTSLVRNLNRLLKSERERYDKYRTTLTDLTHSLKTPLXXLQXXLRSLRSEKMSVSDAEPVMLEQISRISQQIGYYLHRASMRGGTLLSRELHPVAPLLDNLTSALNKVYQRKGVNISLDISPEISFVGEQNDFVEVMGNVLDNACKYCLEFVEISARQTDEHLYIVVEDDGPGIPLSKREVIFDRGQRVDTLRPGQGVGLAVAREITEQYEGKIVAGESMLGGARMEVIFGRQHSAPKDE

- Variants of: B1
- experimental.details: enrichment ratio after two sorts for PhoP signalling (ratio (wild type AVST 3.29)); higher = more functional
- condition.info: with PhoP (E. coli)
The full ranking holds about 140,000 sequences; the median of “enrichment ratio after two sorts for PhoP signalling” is about 0, and the highest 2% start at about 11. The full list was thinned out, with the highest values kept by preference.
quantity: enrichment ratio

Any idea what enrichment ratio was measured for TKIP ?
≤ 0.25

Any idea what enrichment ratio was measured for RPFK ?
≤ 0.25

Any idea what enrichment ratio was measured for IQID ?
≤ 0.25

Any idea what enrichment ratio was measured for CTMY ?
42.4

Any idea what enrichment ratio was measured for AGGV ?
11.4

Any idea what enrichment ratio was measured for ADSF ?
≤ 0.25

Any idea what enrichment ratio was measured for EESA ?
≤ 0.25

Any idea what enrichment ratio was measured for AKSF ?
2.49

Any idea what enrichment ratio was measured for LESG ?
≤ 0.25

Any idea what enrichment ratio was measured for TTCT ?
12.8

Any idea what enrichment ratio was measured for YTCV ?
≤ 0.25

Any idea what enrichment ratio was measured for IVLL ?
1.17

Any idea what enrichment ratio was measured for HVPL ?
≤ 0.25

Any idea what enrichment ratio was measured for VSHP ?
≤ 0.25

Any idea what enrichment ratio was measured for AISF ?
13.4

Any idea what enrichment ratio was measured for NSMY ?
≤ 0.25

Any idea what enrichment ratio was measured for GDCV ?
1.12

Any idea what enrichment ratio was measured for FPTK ?
≤ 0.25

Any idea what enrichment ratio was measured for AEGV ?
17.5

Any idea what enrichment ratio was measured for AMSP ?
≤ 0.25

Any idea what enrichment ratio was measured for LPHR ?
≤ 0.25

Any idea what enrichment ratio was measured for AQHF ?
≤ 0.25

Any idea what enrichment ratio was measured for TCLM ?
1.01

Any idea what enrichment ratio was measured for GCLP ?
0.401

Any idea what enrichment ratio was measured for FRVC ?
≤ 0.25

Any idea what enrichment ratio was measured for FYFF ?
≤ 0.25

Any idea what enrichment ratio was measured for YTCG ?
≤ 0.25

Any idea what enrichment ratio was measured for QQYH ?
≤ 0.25

Any idea what enrichment ratio was measured for YERP ?
≤ 0.25

Any idea what enrichment ratio was measured for RWIP ?
≤ 0.25

Any idea what enrichment ratio was measured for YTMY ?
≤ 0.25

Any idea what enrichment ratio was measured for EAAG ?
≤ 0.25

Any idea what enrichment ratio was measured for AEHV ?
≤ 0.25

Any idea what enrichment ratio was measured for AHGV ?
≤ 0.25

Any idea what enrichment ratio was measured for SSRS ?
≤ 0.25

Any idea what enrichment ratio was measured for DQPA ?
≤ 0.25

Any idea what enrichment ratio was measured for ADCH ?
9.13

Any idea what enrichment ratio was measured for AEME ?
29.5

Any idea what enrichment ratio was measured for HRYP ?
≤ 0.25

Any idea what enrichment ratio was measured for VQYV ?
≤ 0.25

Any idea what enrichment ratio was measured for RRGY ?
≤ 0.25

Any idea what enrichment ratio was measured for TTCV ?
17.3

Any idea what enrichment ratio was measured for ENRC ?
≤ 0.25

Any idea what enrichment ratio was measured for RIRE ?
≤ 0.25

Any idea what enrichment ratio was measured for IFMI ?
≤ 0.25

Any idea what enrichment ratio was measured for AEMY ?
20.4
